Entry source: a collection of fitness landscapes (doi:10.1016/j.celrep.2020.107928)

B1: Caulobacter ParB omega fusion; a variant is named by its letters at X, in order, B8GW30 (parent)
chain: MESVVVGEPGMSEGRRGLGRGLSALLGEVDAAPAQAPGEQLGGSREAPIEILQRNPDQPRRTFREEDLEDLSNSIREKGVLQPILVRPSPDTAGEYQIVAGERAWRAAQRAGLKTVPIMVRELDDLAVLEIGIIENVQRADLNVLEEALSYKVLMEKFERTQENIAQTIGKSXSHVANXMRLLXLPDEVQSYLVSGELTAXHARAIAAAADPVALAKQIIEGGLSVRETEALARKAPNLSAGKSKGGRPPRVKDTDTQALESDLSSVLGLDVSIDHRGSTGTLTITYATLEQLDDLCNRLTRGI

Variants of: B1
Test: one-hybrid fitness for binding parS DNA (scaled: cognate 1, non-cognate 0); higher = stronger binding
Conditions: with parS DNA site
In all, about 81,000 sequences were measured (“one-hybrid fitness for binding parS DNA”: median about -0.17, highest 2% from about 0.51 on). Only a selection was taken, and the highest values are over-represented in it overall.
Task for the reader: assign each of the following variants its reported one-hybrid fitness for binding parS DNA.

Exercise: Entry "KPDR" : reported one-hybrid fitness for binding parS DNA = ?
Key: ≤ 0.2

Exercise: Entry "RIYD" : reported one-hybrid fitness for binding parS DNA = ?
Key: ≤ 0.2

Exercise: Entry "RIDT" : reported one-hybrid fitness for binding parS DNA = ?
Key: 0.725

Exercise: Entry "RIDF" : reported one-hybrid fitness for binding parS DNA = ?
Key: 0.257

Exercise: Entry "PSHS" : reported one-hybrid fitness for binding parS DNA = ?
Key: ≤ 0.2

Exercise: Entry "RSNA" : reported one-hybrid fitness for binding parS DNA = ?
Key: 0.596

Exercise: Entry "LDQC" : reported one-hybrid fitness for binding parS DNA = ?
Key: ≤ 0.2

Exercise: Entry "TPMT" : reported one-hybrid fitness for binding parS DNA = ?
Key: ≤ 0.2

Exercise: Entry "RTDD" : reported one-hybrid fitness for binding parS DNA = ?
Key: ≤ 0.2

Exercise: Entry "CCPY" : reported one-hybrid fitness for binding parS DNA = ?
Key: ≤ 0.2

Exercise: Entry "MILL" : reported one-hybrid fitness for binding parS DNA = ?
Key: ≤ 0.2

Exercise: Entry "PPTT" : reported one-hybrid fitness for binding parS DNA = ?
Key: ≤ 0.2

Exercise: Entry "PSYN" : reported one-hybrid fitness for binding parS DNA = ?
Key: ≤ 0.2

Exercise: Entry "PTDC" : reported one-hybrid fitness for binding parS DNA = ?
Key: ≤ 0.2

Exercise: Entry "RWNA" : reported one-hybrid fitness for binding parS DNA = ?
Key: 0.425

Exercise: Entry "CRFC" : reported one-hybrid fitness for binding parS DNA = ?
Key: ≤ 0.2

Exercise: Entry "RISF" : reported one-hybrid fitness for binding parS DNA = ?
Key: 0.21

Exercise: Entry "IENR" : reported one-hybrid fitness for binding parS DNA = ?
Key: ≤ 0.2

Exercise: Entry "RIYP" : reported one-hybrid fitness for binding parS DNA = ?
Key: 0.203

Exercise: Entry "KENP" : reported one-hybrid fitness for binding parS DNA = ?
Key: ≤ 0.2

Exercise: Entry "RIDR" : reported one-hybrid fitness for binding parS DNA = ?
Key: ≤ 0.2

Exercise: Entry "EKTR" : reported one-hybrid fitness for binding parS DNA = ?
Key: ≤ 0.2

Exercise: Entry "TFSF" : reported one-hybrid fitness for binding parS DNA = ?
Key: ≤ 0.2

Exercise: Entry "RCDA" : reported one-hybrid fitness for binding parS DNA = ?
Key: 0.567

Exercise: Entry "RTAC" : reported one-hybrid fitness for binding parS DNA = ?
Key: 0.98

Exercise: Entry "MISR" : reported one-hybrid fitness for binding parS DNA = ?
Key: ≤ 0.2

Exercise: Entry "RIST" : reported one-hybrid fitness for binding parS DNA = ?
Key: 0.929

Exercise: Entry "TPRA" : reported one-hybrid fitness for binding parS DNA = ?
Key: ≤ 0.2

Exercise: Entry "RTDP" : reported one-hybrid fitness for binding parS DNA = ?
Key: ≤ 0.2

Exercise: Entry "ECVT" : reported one-hybrid fitness for binding parS DNA = ?
Key: ≤ 0.2

Exercise: Entry "RWRA" : reported one-hybrid fitness for binding parS DNA = ?
Key: 0.474

Exercise: Entry "VVQF" : reported one-hybrid fitness for binding parS DNA = ?
Key: ≤ 0.2

Exercise: Entry "RPDA" : reported one-hybrid fitness for binding parS DNA = ?
Key: ≤ 0.2

Exercise: Entry "AYMK" : reported one-hybrid fitness for binding parS DNA = ?
Key: ≤ 0.2

Exercise: Entry "RIYT" : reported one-hybrid fitness for binding parS DNA = ?
Key: 0.926

Exercise: Entry "RTNH" : reported one-hybrid fitness for binding parS DNA = ?
Key: ≤ 0.2

Exercise: Entry "RTNG" : reported one-hybrid fitness for binding parS DNA = ?
Key: 0.968

Exercise: Entry "RGNA" : reported one-hybrid fitness for binding parS DNA = ?
Key: 0.394

Exercise: Entry "SQES" : reported one-hybrid fitness for binding parS DNA = ?
Key: ≤ 0.2

Exercise: Entry "RWDA" : reported one-hybrid fitness for binding parS DNA = ?
Key: 0.29

Exercise: Entry "AQMM" : reported one-hybrid fitness for binding parS DNA = ?
Key: ≤ 0.2

Exercise: Entry "QGIP" : reported one-hybrid fitness for binding parS DNA = ?
Key: ≤ 0.2

Exercise: Entry "ATQR" : reported one-hybrid fitness for binding parS DNA = ?
Key: ≤ 0.2

Exercise: Entry "MNLG" : reported one-hybrid fitness for binding parS DNA = ?
Key: ≤ 0.2

Exercise: Entry "GNAS" : reported one-hybrid fitness for binding parS DNA = ?
Key: ≤ 0.2

Exercise: Entry "HNST" : reported one-hybrid fitness for binding parS DNA = ?
Key: ≤ 0.2
